Reference for the values: patent US11566007B2

target: NRAS Q61R (Homo sapiens (Human), UniProt P01111+P62937, Q61R); test: Ras-Raf (BRAF RBD) disruption / FRET / MOA assay, NRAS Q61R; assay type: biochemical; conditions: NRAS Q61R; Ras-Raf disruption/FRET/MOA assay; read-out: IC50* NRAS Q61R FRET data
Sequence (P01111 whole entry Q61R): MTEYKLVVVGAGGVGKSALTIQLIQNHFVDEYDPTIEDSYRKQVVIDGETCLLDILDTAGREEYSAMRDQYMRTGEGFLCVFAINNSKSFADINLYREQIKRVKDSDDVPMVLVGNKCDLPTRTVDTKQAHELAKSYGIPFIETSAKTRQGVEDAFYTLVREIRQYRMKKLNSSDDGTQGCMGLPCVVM
Sequence (P62937 whole entry): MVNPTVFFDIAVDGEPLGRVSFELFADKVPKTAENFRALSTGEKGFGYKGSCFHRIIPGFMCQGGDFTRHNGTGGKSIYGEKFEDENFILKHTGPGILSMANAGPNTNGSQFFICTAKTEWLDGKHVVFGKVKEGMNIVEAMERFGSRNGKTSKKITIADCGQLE
pIC50: −log10 of the molar value.
Property: pIC50; scope: individual compounds

[
  {
    "Compound": "C=CC(=O)N1CCO[C@@]2(CCN(C(=O)N(C)[C@H](C(=O)N[C@H]3Cc4nc(cs4)-c4ccc5c(c4)c(c(-c4cccnc4[C@H](C)OC)n5CC(F)(F)F)CC(C)(C)COC(=O)[C@@H]4CCCN(N4)C3=O)C(C)C)C2)C1 (atropisomer, axis not shown)",
    "Target Or Test System": "NRAS Q61R (Homo sapiens (Human), UniProt P01111+P62937, Q61R)",
    "pIC50": "7.00 to 8.00"
  },
  {
    "Compound": "C=CC(=O)N1CC[C@H](C(=O)N(C)[C@H](C(=O)N[C@H]2Cc3csc(n3)-c3ccc4c(c3)c(c(-c3cccnc3[C@H](C)OC)n4CC)CC(C)(C)COC(=O)[C@@H]3CCCN(N3)C2=O)C(C)C)C1 (atropisomer, axis not shown)",
    "Target Or Test System": "NRAS Q61R (Homo sapiens (Human), UniProt P01111+P62937, Q61R)",
    "pIC50": "5.00 to 6.00"
  },
  {
    "Compound": "C=CC(=O)N1CCN(C(=O)N(C)[C@H](C(=O)N[C@H]2Cc3nc(cs3)-c3ccc4c(c3)c(c(-c3cccnc3[C@H](C)OC)n4CC)CC(C)(C)COC(=O)[C@@H]3CCCN(N3)C2=O)C(C)C)[C@H]2C[C@H]21 (atropisomer, axis not shown)",
    "Target Or Test System": "NRAS Q61R (Homo sapiens (Human), UniProt P01111+P62937, Q61R)",
    "pIC50": "7.00 to 8.00"
  },
  {
    "Compound": "C=CC(=O)N1CC[C@H](C(=O)N(C)[C@H](C(=O)N[C@H]2Cc3cc(O)cc(c3)-c3ccc4c(c3)c(c(-c3cccc(=O)n3C(C)C)n4CC)CC(C)(C)COC(=O)[C@@H]3CCCN(N3)C2=O)C(C)C)C1",
    "Target Or Test System": "NRAS Q61R (Homo sapiens (Human), UniProt P01111+P62937, Q61R)",
    "pIC50": "< 5.00"
  },
  {
    "Compound": "C=CC(=O)N(C)[C@H]1CN(C(=O)N(C)[C@H](C(=O)N[C@H]2Cc3nc(cs3)-c3ccc4c(c3)c(c(-c3cccnc3[C@H](C)OC)n4CC)CC(C)(C)COC(=O)[C@@H]3CCCN(N3)C2=O)C(C)C)C[C@H]1F (atropisomer, axis not shown)",
    "Target Or Test System": "NRAS Q61R (Homo sapiens (Human), UniProt P01111+P62937, Q61R)",
    "pIC50": "6.00 to 7.00"
  },
  {
    "Compound": "C=CC(=O)N1CC[C@H](C(=O)N(C)[C@H](C(=O)N[C@H]2Cc3cc(O)cc(c3)-c3ccc4c(c3)c(c(-c3cnn5c3[C@@H](OC)CCC5)n4CC)CC(C)(C)COC(=O)[C@@H]3CCCN(N3)C2=O)C(C)C)C1",
    "Target Or Test System": "NRAS Q61R (Homo sapiens (Human), UniProt P01111+P62937, Q61R)",
    "pIC50": "6.00 to 7.00"
  }
]

Tell us which pIC50 value is on record for C=CC(=O)N1CC[C@H](C(=O)N(C)[C@H](C(=O)N[C@H]2C[C@H]3CN(CCO3)c3ccc4c(c3)c(c(-c3cccnc3[C@H](C)OC)n4CC)CC(C)(C)COC(=O)[C@@H]3CCCN(N3)C2=O)C(C)C)C1 (atropisomer, axis not shown)
< 5.00

Tell us which pIC50 value is on record for C=C(C)C(=O)N1CC(N(C)C(=O)N(C)[C@H](C(=O)N[C@H]2Cc3nc(cs3)-c3ccc4c(c3)c(c(-c3cccnc3[C@H](C)OC)n4CC)CC(C)(C)COC(=O)[C@@H]3CCCN(N3)C2=O)C(C)C)C1 (atropisomer, axis not shown)
6.00 to 7.00
